System: wheat leaf blight pathogen (Septoria tritici)
Experiment: Fungicidal test for wheat leaf blight (microplate, turbidity at 405 nm)
Type: cell-based
Conditions: Zymoseptoria tritici; component (I) alone, 100 ppm; read-out: growth inhibition rate
Label scheme for inhibition at 100 ppm: lower than 70% is 0 (no), 70% and above is 1 (yes).

The following compounds have reported results that may help.
compound | qualitativeLabel
O=C(Cc1ccc(-c2noc(C(F)(F)F)n2)cc1)N1CC(=NOCC(F)F)C1 [Compound 4] | 1 (yes)
CCON=C1CN(C(=O)Cc2ccc(-c3noc(C(F)(F)F)n3)cc2)C1 [Compound 1] | 1 (yes)
N#CCON=C1CN(C(=O)Cc2ccc(-c3noc(C(F)(F)F)n3)cc2)C1 [Compound 3] | 0 (no)

Note: attention shifts to another entry.
Problem: Exam item: decide whether the reported inhibition at 100 ppm for O=C(Cc1ccc(-c2noc(C(F)(F)F)n2)cc1)N1CCC(=NOC2CCCCO2)CC1 (stereo not drawn) [Compound 2] is at least 70%.
Result: 0 (no)

====

Consider the following compounds; for each one, report its control value.
System: soybean rust pathogen (Phakopsora pachyrhizi)
Assay: Soybean rust control test (leaf discs)
Type: in vivo
Conditions: component (I) alone, 0.4 ppm
Answers are plain numbers, in %.

compound | quantityName | reportedResult
CCON=C1CN(C(=O)Cc2ccc(-c3noc(C(F)(F)F)n3)cc2)C1 | control value | 99
CCON=C1CN(C(=O)C(OC)c2ccc(-c3noc(C(F)(F)F)n3)cc2)C1 (stereo not drawn) | control value | 90
O=C(Cc1ccc(-c2noc(C(F)(F)F)n2)cc1)N1CC(=NOCC(F)F)C1 | control value | 97
N#CCON=C1CN(C(=O)Cc2ccc(-c3noc(C(F)(F)F)n3)cc2)C1 | control value | 85
CCON=C1CN(C(=O)C(C)c2ccc(-c3noc(C(F)(F)F)n3)cc2)C1 (stereo not drawn) | control value | 98

Please examine the following record next.
Problem: Query (compound): "CC(C)ON=C1CN(C(=O)Cc2ccc(-c3noc(C(F)(F)F)n3)cc2)C1" ; field requested: control value
Result: 94
